For each of the molecules below, state its IC50.
molecular target: CypH (Homo sapiens, UniProt O43447); construct: PPIH (UniProtKB Entry O43447: residues 1–177); His6 with TEV site (2BT vector leader) (N); made in house; host or cells: E. coli BL21(DE3); test: Chymotrypsin coupled prolyl-isomerase assay; format: biochemical; details: prolyl-isomerase inhibition, 5 nM cyclophilin; read-out: IC50 CypH
Sequence (O43447 whole entry, the tested form may be a part): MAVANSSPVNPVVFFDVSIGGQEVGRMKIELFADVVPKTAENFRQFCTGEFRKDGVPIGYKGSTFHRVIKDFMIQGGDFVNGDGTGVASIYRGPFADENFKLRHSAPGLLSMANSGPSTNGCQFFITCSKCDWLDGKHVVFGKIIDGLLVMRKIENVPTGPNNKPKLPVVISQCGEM

Query CC(=O)c1ccc(-c2ccc(C[C@@H]3NC(=O)[C@]4(Cc5ccccc5)CCCN(C4)C(=O)/C=C/C(=O)NCC[C@@H](C(=O)NCCOCCN)NC(=O)Cc4ccccc4CNC3=O)cc2)cc1 [Compound B15] yields IC50 of ~80 µM

Query NCCOCCNC(=O)C1CCNC(=O)C=CC(=O)N2CCCC(C2)C(=O)NC(Cc2ccco2)C(=O)NCc2ccccc2CC(=O)N1 (centres unmarked) [JOMBt] yields IC50 of ~100 µM

Query NC(=O)[C@@H]1CCNC(=O)/C=C/C(=O)N2CCC[C@](Cc3ccccc3)(C2)C(=O)N[C@@H](Cc2ccc(-c3cccc(B(O)O)c3)cc2)C(=O)NCc2ccccc2CC(=O)N1 [Compound C6A] yields IC50 of ~4 µM

Query NCCOCCNC(=O)[C@@H]1CCNC(=O)/C=C/C(=O)N2CCC[C@](Cc3ccccc3)(C2)C(=O)N[C@@H](Cc2ccc(-c3ccc(CC(C(=O)O)C(=O)O)cc3)cc2)C(=O)NCc2ccccc2CC(=O)N1 [Compound B52] yields IC50 of > 100 µM

Query C[N+]1=C(C=CC=CC=C2N(CCCCCC(=O)NCCNC(=O)C3CCNC(=O)C=CC(=O)N4CCCC(Cc5ccccc5)(C4)C(=O)NC(Cc4ccc(-c5ccc(CC(C(=O)O)C(=O)O)cc5)cc4)C(=O)NCc4ccccc4CC(=O)N3)c3ccccc3C2(C)C)C(C)(C)c2ccccc21 (centres unmarked) [Compound B52-Cy5] yields IC50 of ~10 µM

Query NCCOCCNC(=O)[C@@H]1CCNC(=O)/C=C/C(=O)N2CCC[C@](Cc3ccccc3)(C2)C(=O)N[C@@H](Cc2ccc(-c3ccc(CC(=O)O)cc3)cc2)C(=O)NCc2ccccc2CC(=O)N1 [Compound B22] yields IC50 of ~100 µM

Query NCCOCCNC(=O)[C@@H]1CCNC(=O)/C=C/C(=O)N2CCC[C@](Cc3ccccc3)(C2)C(=O)N[C@@H](Cc2ccc(-c3ccc(C#CC(=O)O)cc3)cc2)C(=O)NCc2ccccc2CC(=O)N1 [Compound B25] yields IC50 of ~50 µM

Query NCCOCCNC(=O)[C@@H]1CCNC(=O)/C=C/C(=O)N2CCC[C@](Cc3ccccc3)(C2)C(=O)N[C@@H](Cc2ccc(-c3ccc(C(CC(=O)O)CC(=O)O)cc3)cc2)C(=O)NCc2ccccc2CC(=O)N1 [Compound B53] yields IC50 of > 50 µM
